Values compiled from patent US11753399B2.

// values below are reported CC50 at 5 days
methodDescription: Test B: Cytotoxicity Assay (same protocol as Test A, uninfected cells)
Format: cell-based
runParameters: human, uninfected MT-4 cells, CellTiter-Glo
valueType: CC50 at 5 days

CC(C)(C#Cc1ccc(-c2ccc(Cl)c3c(NS(=O)(=O)CC4CC4)nn(CC(F)F)c23)c([C@H](Cc2cc(F)cc(F)c2)NC(=O)Cn2nc(C(F)(F)F)c3c2C(F)(F)[C@@H]2C[C@H]32)n1)S(=O)(=O)C1CC1 [Example 27] = > 57.1 µM
Cn1nc(NS(C)(=O)=O)c2c(Cl)ccc(-c3ccc(C#CC(C)(C)S(=O)(=O)C4CC4)nc3[C@H](Cc3cc(F)cc(F)c3)NC(=O)Cc3nnn[nH]3)c21 [Example 46] = > 54.6 µM
Cn1nc(NS(C)(=O)=O)c2c(Cl)ccc(-c3ccc(C#CC(C)(C)S(=O)(=O)C4CC4)nc3[C@H](Cc3cc(F)cc(F)c3)NC(=O)Cn3cccn3)c21 [Example 50] = > 53.6 µM
CC1(S(=O)(=O)Nc2nn(CC(F)(F)F)c3c(-c4ccc(C#CC(C)(C)S(=O)(=O)C5CC5)nc4[C@H](Cc4cc(F)cc(F)c4)NC(=O)Cn4nc(C(F)(F)F)c5c4C(F)(F)[C@@H]4C[C@H]54)ccc(Cl)c23)CC1 [Example 29] = > 57.1 µM
CC(C)(C#Cc1ccc(-c2ccc(Cl)c3c(NS(C)(=O)=O)nn(CC(F)F)c23)c([C@H](Cc2cc(F)cc(F)c2)NC(=O)Cn2nc(C(F)F)c3c2C(F)(F)CCC3(F)F)n1)S(=O)(=O)C1CC1 [Example 42] = > 57.1 µM
Cn1nc(NS(C)(=O)=O)c2c(Cl)ccc(-c3ccc(C#CC(C)(C)S(=O)(=O)C4CC4)nc3[C@H](Cc3cc(F)cc(F)c3)NC(=O)Cn3nc(C(F)F)c(Br)c3C(F)F)c21 [Example 58] = > 57.1 µM
CC1(S(=O)(=O)Nc2nn(CC(F)F)c3c(-c4ccc(C#CC(C)(C)S(=O)(=O)C5CC5)nc4[C@H](Cc4cc(F)cc(F)c4)NC(=O)Cn4nc(C(F)F)c5c4C(F)(F)CCC5(F)F)ccc(Cl)c23)CC1 [Example 37] = > 57.1 µM
CC(C)(C#Cc1ccc(-c2ccc(Cl)c3c(NS(C)(=O)=O)nn(CC(F)F)c23)c([C@H](Cc2cc(F)cc(F)c2)NC(=O)Cn2nc(C(F)F)c3c2C(F)(F)[C@@H]2C[C@H]32)n1)S(=O)(=O)C1CC1 [Example 8] = > 57.1 µM
Cn1nc(NS(C)(=O)=O)c2c(Cl)ccc(-c3ccc(C#CC(C)(C)S(=O)(=O)C4CC4)nc3[C@H](Cc3cc(F)cc(F)c3)NC(=O)Cn3cnnn3)c21 [Example 45] = 20.1 µM
